# target-system: MUC1 on HCT116/MUC1 cells (human, UniProt P15941 24-1255)
# Sequence (P15941 24-1097, chain 1 of 2): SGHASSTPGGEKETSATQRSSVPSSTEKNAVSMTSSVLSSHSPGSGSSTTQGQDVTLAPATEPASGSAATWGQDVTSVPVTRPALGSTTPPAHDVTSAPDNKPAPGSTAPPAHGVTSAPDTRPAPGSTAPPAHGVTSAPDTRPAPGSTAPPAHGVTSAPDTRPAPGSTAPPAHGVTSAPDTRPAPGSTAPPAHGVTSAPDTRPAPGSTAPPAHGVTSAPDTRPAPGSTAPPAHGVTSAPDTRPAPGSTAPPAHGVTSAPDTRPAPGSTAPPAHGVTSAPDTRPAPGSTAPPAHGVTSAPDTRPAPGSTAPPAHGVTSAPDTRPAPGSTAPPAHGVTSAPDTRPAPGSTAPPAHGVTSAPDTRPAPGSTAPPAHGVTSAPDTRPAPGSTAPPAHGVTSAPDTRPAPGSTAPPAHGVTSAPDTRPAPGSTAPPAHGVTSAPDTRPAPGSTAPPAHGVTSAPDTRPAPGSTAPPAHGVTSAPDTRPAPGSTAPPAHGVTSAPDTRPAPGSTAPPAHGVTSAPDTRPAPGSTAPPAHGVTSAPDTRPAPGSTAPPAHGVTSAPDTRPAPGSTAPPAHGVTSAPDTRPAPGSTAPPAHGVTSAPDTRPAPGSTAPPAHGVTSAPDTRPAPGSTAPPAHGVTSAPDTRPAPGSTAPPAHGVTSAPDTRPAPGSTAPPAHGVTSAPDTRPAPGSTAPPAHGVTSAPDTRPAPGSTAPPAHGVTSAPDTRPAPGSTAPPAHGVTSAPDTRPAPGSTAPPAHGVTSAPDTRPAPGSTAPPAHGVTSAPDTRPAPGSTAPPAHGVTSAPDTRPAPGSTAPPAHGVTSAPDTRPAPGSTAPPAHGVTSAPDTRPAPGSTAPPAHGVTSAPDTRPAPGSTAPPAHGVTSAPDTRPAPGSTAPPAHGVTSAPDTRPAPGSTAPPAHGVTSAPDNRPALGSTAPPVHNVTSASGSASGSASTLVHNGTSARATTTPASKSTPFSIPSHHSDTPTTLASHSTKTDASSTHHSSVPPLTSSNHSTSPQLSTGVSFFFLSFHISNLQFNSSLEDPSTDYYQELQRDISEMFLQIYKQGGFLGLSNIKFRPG
# Sequence (P15941 1098-1255, chain 2 of 2): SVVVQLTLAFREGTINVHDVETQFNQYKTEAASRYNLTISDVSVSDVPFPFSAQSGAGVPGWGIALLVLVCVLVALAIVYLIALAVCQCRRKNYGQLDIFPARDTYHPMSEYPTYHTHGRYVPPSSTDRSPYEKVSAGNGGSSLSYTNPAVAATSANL
# test: flow cytometry on HCT116/MUC1 cells; antibody at 11.11111 nM
Entries and their measured FACS titration signal follow.

VH1 + VL3 (antibody, V domains shown) VH: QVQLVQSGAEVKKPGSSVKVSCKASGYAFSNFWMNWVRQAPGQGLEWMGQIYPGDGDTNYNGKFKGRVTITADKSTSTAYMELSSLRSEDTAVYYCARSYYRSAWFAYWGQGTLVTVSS VL: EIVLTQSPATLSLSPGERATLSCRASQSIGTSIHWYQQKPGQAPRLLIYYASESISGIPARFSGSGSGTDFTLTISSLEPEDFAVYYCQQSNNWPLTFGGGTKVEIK | 20.2
VH5 + VL2 (antibody, V domains shown) VH: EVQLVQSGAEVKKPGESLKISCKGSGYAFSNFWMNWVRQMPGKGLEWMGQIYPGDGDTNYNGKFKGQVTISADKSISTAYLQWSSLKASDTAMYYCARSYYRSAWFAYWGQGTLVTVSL VL: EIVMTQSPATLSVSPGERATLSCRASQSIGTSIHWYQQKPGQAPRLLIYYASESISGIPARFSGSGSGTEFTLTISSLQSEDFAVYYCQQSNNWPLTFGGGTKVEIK | 33.4
VH2 + VL3 (antibody, V domains shown) VH: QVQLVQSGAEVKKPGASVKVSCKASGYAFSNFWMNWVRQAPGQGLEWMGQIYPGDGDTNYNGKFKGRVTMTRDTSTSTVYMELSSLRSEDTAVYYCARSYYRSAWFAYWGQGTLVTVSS VL: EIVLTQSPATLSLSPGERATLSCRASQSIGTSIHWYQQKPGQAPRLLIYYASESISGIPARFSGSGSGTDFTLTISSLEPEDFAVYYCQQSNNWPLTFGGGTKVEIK | 21.5

Kindly consider the entry below.
**Query** Need FACS titration signal, item VH1 + VL4 (antibody, V domains shown) VH: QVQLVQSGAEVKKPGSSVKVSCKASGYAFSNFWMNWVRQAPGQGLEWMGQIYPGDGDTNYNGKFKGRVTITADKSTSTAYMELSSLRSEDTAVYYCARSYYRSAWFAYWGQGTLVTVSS VL: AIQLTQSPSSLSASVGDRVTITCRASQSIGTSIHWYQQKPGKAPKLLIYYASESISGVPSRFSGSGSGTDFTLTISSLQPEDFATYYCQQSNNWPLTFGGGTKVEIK
**Result** 32.3
